target: 5-hydroxytryptamine receptor 5A (Homo sapiens) (UniProt P47898); experiment: inverse agonism at human 5-HT5A receptor – cell-based, luminescence, full-deck HTS, counter-screen for OPRM1-OPRD1 heterodimer inverse agonist project, primary screen (AID 504634); conditions: HTR5A cell line, at 9.3 µM;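 note: 0% = cells with DMSO and 100% = no-cell wells with DMSO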
Sequence (P47898 whole entry, looked up): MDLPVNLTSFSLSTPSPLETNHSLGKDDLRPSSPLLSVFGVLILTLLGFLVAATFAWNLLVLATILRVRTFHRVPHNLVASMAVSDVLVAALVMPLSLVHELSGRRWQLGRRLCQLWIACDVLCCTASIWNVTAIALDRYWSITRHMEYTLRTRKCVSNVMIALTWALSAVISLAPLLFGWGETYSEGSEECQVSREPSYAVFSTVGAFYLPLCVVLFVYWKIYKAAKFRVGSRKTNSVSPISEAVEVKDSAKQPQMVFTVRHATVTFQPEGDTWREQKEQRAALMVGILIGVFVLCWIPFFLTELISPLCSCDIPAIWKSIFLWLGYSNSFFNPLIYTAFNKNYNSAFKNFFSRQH
The campaign covered roughly 340,000 compounds. About 280 (0.082%) were called active. Cut-off read from the data, not from the text of the source: active = inhibition mostly above about 23% (no sharp cut-off); inactive = mostly below about 18%. The full list was thinned out, with actives kept by preference.
Select the matching outcome among 1 (yes) = active, 0 (no) = inactive

Consider the worked cases shown below.
INSERT INTO results (molecule, classassignment) VALUES
  ('Cc1ccccc1-c1n[nH]c(=S)n1/N=C/c1ccc(-c2ccccc2Br)o1', '0 (no)'),
  ('O=C(O)c1ccc(-n2nc(-c3ccccc3)c3ccccc3c2=O)cc1', '0 (no)'),
  ('CC(C)(C)n1nnnc1C(c1ccccc1F)N1CCN(C(=O)c2ccco2)CC1 (stereo unspecified)', '0 (no)'),
  ('CN(CCO)S(=O)(=O)c1ccc2c(c1)C(=O)c1cc(S(=O)(=O)N(C)CCO)ccc1-2', '0 (no)');

Recorded call for `CCCCn1c(N)c(N2CCOCC2)c(=O)n(CC(=O)NCCc2ccccc2)c1=O` ?
0 (no)

Similarly, CC(NC(=O)CNC(=O)Cc1cccc2ccccc12)c1ccc(S(N)(=O)=O)cc1 (stereo unspecified) ?
0 (no)

Similarly, `C=C1CCN([C@@H](Cc2ccccc2)C(=O)N2CCOCC2)S(=O)(=O)c2ccccc21` ?
0 (no)

Similarly, `Cc1cccc(NC(=O)N2CCCCCC2)c1C` ?
0 (no)

Similarly, `COc1ccc2c(c1)CCC/C2=N\OC(=O)c1ccccc1F` ?
0 (no)

Similarly, `CCCS(=O)(=O)N1CCN(C(=O)c2cccs2)CC1` ?
0 (no)

Similarly, `CN(CCc1ccccc1)C(=O)c1cccc(NC(=O)Cc2ccc([N+](=O)[O-])cc2)c1` ?
0 (no)

Similarly, `COc1cccc(COC(=O)C2CCN(S(=O)(=O)c3cccs3)CC2)c1OC` ?
0 (no)

* * *

molecular target: 5-hydroxytryptamine receptor 5A (Homo sapiens) (UniProt P47898); assay: inverse agonism at human 5-HT5A receptor – cell-based, luminescence, full-deck HTS, counter-screen for OPRM1-OPRD1 heterodimer inverse agonist project, primary screen (AID 504634); settings: HTR5A cell line, at 9.3 µM;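 note: 0% = cells with DMSO and 100% = no-cell wells with DMSO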
Hit rate of the full screen: of about 340,000 compounds, about 280 (0.082%) were called active. Cut-off read from the data, not from the text of the source: active = inhibition mostly above about 23% (no sharp cut-off); inactive = mostly below about 18%. Only a selection was taken, and actives are over-represented in it overall.
Select the matching outcome among yes (active), no (inactive)

INSERT INTO assay_data (compound, classassignment) VALUES
  ('COC(=O)C1CCCCN1C(=O)c1ccc(OC2CCN(C(C)=O)CC2)c(OC)c1 (stereo not given)', 'no'),
  ('O=C(NNc1cc(Cl)cc(Cl)c1)c1c(F)cccc1Cl', 'no'),
  ('Nc1nonc1-n1nnc(C(=O)N/N=C/c2cc(Br)ccc2O)c1CSC1=NCCS1', 'no');

Recorded call for `CCOC(=O)c1c(C)[nH]c(C)c1S(=O)(=O)NCCCc1ccco1` ?
no

Similarly, `COc1ccc(C#Cc2c(-c3ccc(OC)cc3)oc3ccc(-c4ccc5c(c4)OCO5)cc23)cc1` ?
no

Similarly, `N#Cc1ccc(C2=CC(=O)C[C@H](c3ccc(Cl)cc3)C2)cc1` ?
no

Similarly, `CCc1nc2ccccc2n(CCOCCOCCn2c(=O)c(CC)nc3ccccc32)c1=O` ?
no

Similarly, `COc1ccc(-c2nnc(SC(=O)N3c4ccccc4Sc4ccccc43)o2)cc1` ?
no

Similarly, `CS(=O)(=O)N(CC(=O)Nc1ccc(F)cc1F)c1cccc([N+](=O)[O-])c1` ?
no

Similarly, `CCOc1ncccc1C(=O)N(CC)CC(=O)Nc1ccc(NC(C)=O)cc1` ?
no

Similarly, `COc1ccc(N/N=C2/CCCCC2=O)cc1` ?
no

Similarly, O=C(NCCC1CCCCN1S(=O)(=O)c1ccccc1)C(=O)NCC1CCCO1 (stereo not given) ?
no

Similarly, COc1ccc(-c2nnc(SC(C)C(=O)NC3CC3)o2)cc1 (stereo not given) ?
yes

Similarly, CN1C(CC(=O)Nc2ccc(Br)cc2)c2ccccc2CC1(C)C (stereo not given) ?
no

Similarly, `COC(=O)N1CN(C(=O)OC)CN(C(=O)OC)C1` ?
no

* * *

# reported inhibition; entries follow
target: 5-hydroxytryptamine receptor 5A (Homo sapiens); experiment: inverse agonism at human 5-HT5A receptor – cell-based, luminescence, full-deck HTS, counter-screen for OPRM1-OPRD1 heterodimer inverse agonist project, primary screen (AID 504634); details: HTR5A cell line, at 9.3 µM, active compounds read high;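 note: 0% = cells with DMSO and 100% = no-cell wells with DMSO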
Out of some 340,000 compounds screened, about 280 (0.082%) were called active. This excerpt belongs to a sample that is enriched for actives.

Use these answered entries as a reference point.
INSERT INTO measurements (compound, measuredquantity, measurement) VALUES
  ('COc1cccc(NC(=O)COC(=O)CCOc2ccccc2OC)c1', 'inhibition', '-27.4% (inactive)'),
  ('Cc1cc(C(=O)COc2ccccc2[N+](=O)[O-])c(C)n1-c1cccc(S(=O)(=O)N2CCOCC2)c1', 'inhibition', '-23.2% (inactive)'),
  ('Cc1cc(C)cc(C(=O)NC(CC(N)=O)c2ccc(N3CCC(N4CCCCC4)CC3)c([N+](=O)[O-])c2)c1 (centres undefined)', 'inhibition', '-1.31% (inactive)'),
  ('CCNC(=S)N1CCN(S(=O)(=O)c2ccc(Cl)s2)CC1', 'inhibition', '2.35% (inactive)'),
  ('CN(C)c1ccc(/C=C/C(=O)c2ccc(C(C)(C)C)cc2)cc1[N+](=O)[O-]', 'inhibition', '-5.83% (inactive)');

Could you tell me which inhibition is on file for `COn1c(=O)c(=O)n(OC)c2ccccc21` ?
13.4% (inactive)

Similarly, `Cc1noc(C)c1NC(=O)Nc1ccc2c(c1)C(=O)N([C@H](C)CO)C[C@H](C)[C@@H](CN(C)C(=O)Nc1ccccc1)O2` ?
-10% (inactive)

Similarly, COc1cc(C)nc(N2CCCC(C(=O)NCC(C)C)C2)n1 (centres undefined) ?
-13.9% (inactive)

Similarly, CCc1nccn1CCC(=O)N1CCCC(N2CCN(c3ccccc3F)CC2)C1 (centres undefined) ?
5.46% (inactive)

Similarly, `Cc1c(CNCCc2ccccc2)c(C(=O)O)c(C)n1-c1ccccc1` ?
10.6% (inactive)

* * *

target: 5-hydroxytryptamine receptor 5A (Homo sapiens); assay: inverse agonism at human 5-HT5A receptor – cell-based, luminescence, full-deck HTS, counter-screen for OPRM1-OPRD1 heterodimer inverse agonist project, primary screen (AID 504634); conditions: HTR5A cell line, at 9.3 µM;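 note: 0% = cells with DMSO and 100% = no-cell wells with DMSO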
Screen size: about 340,000 compounds; about 280 (0.082%) were called active. No stated cut-off is given here; in the data, active means inhibition mostly above about 23% (no sharp cut-off); inactive means mostly below about 18%. The sample holds actives, similar compounds and a random draw of the others, so the mix is not that of the screen.
Select the matching outcome among yes = active, no = inactive

Consider the worked cases shown below.
INSERT INTO results (compound, classassignment) VALUES
  ('O=C(Nc1ccc2c(c1)C(=O)OC2)Nc1cccc2ccccc12', 'no'),
  ('Cc1cc(C)nc(SC(C)C(=O)N/N=C/c2cccs2)n1 (centres undefined)', 'no'),
  ('COc1ccccc1CN(C)C(=O)C1(c2ccc(Cl)cc2)CC1', 'no'),
  ('CN1CCN(C2=NCCO2)CC1', 'no'),
  ('CC(C)(C)c1ccc(S(=O)(=O)N2CCN(C(=O)c3ccc4c(c3)C(=O)N(Cc3ccncc3)C4=O)CC2)cc1', 'no'),
  ('COc1cc(C(=O)NNC(=O)CN2C(=O)NC3(CCCC3)C2=O)cc(OC)c1OC', 'no');

Recorded call for CCOc1ccc(CCNC(=O)CN2C(=O)NC3(CCc4ccccc43)C2=O)cc1OCC (centres undefined) ?
no

Similarly, `COc1ccc(S(=O)(=O)N2CCc3ccccc32)cc1C(=O)Nc1cc(S(C)(=O)=O)ccc1Cl` ?
no

Similarly, `CCOC(=O)NC(=O)C(=CNc1cccc(OC)c1)C(=O)NC(=O)OCC` ?
yes

Similarly, `Cc1noc(C)c1COc1ccc(C(=O)NCCOc2ccccc2)cc1` ?
no

Similarly, `COc1cc(N2CCCC2)c(OC)cc1/C=C(/C#N)c1cccc(Br)c1` ?
no

Similarly, Cc1cccc(N2CC(C)Cn3c2nc2c3c(=O)n(CC(=O)OCc3ccccc3)c(=O)n2C)c1 (centres undefined) ?
no

Similarly, O=S(=O)(NC1CCCCC1N1CCC(O)CC1)c1ccc(Cl)cc1 (centres undefined) ?
no

* * *

# reported inhibition; entries follow
target: 5-hydroxytryptamine receptor 5A (Homo sapiens) (UniProt P47898); assay: inverse agonism at human 5-HT5A receptor – cell-based, luminescence, full-deck HTS, counter-screen for OPRM1-OPRD1 heterodimer inverse agonist project, primary screen (AID 504634); conditions: HTR5A cell line, at 9.3 µM, active compounds read high;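 note: 0% = cells with DMSO and 100% = no-cell wells with DMSO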
The whole screen tested about 340,000 compounds, of which about 280 (0.082%) were called active. This excerpt belongs to a sample that is enriched for actives.
Provide only the numeric value, understood in %.

Use these answered entries as a reference point.
INSERT INTO results (molecule, assaytarget, measuredquantity, measurement) VALUES
  ('O=C1C(Cc2ccc(O)cc2)NC(=S)N1Cc1ccccc1 (stereo unspecified)', '5-hydroxytryptamine receptor 5A (Homo sapiens) (UniProt P47898)', 'inhibition', -7.4),
  ('CCOC(=O)C1CCN(C(=O)Nc2cccc(OC)c2)CC1', '5-hydroxytryptamine receptor 5A (Homo sapiens) (UniProt P47898)', 'inhibition', 17.6),
  ('COc1ccc2[nH]c3c(c2c1)CCN1C(=O)C(CC(=O)NCCc2ccccn2)C[C@H](C(=O)N2CCOCC2)[C@@]31C (stereo partly specified)', '5-hydroxytryptamine receptor 5A (Homo sapiens) (UniProt P47898)', 'inhibition', 2.62),
  ('CN(C(=O)CSc1nnc(Nc2ccccc2)s1)C1CCS(=O)(=O)C1 (stereo unspecified)', '5-hydroxytryptamine receptor 5A (Homo sapiens) (UniProt P47898)', 'inhibition', 16.5),
  ('Cn1c(N)c(C(=O)COC(=O)c2cnc(Cl)c(Cl)c2)c(=O)n(C)c1=O', '5-hydroxytryptamine receptor 5A (Homo sapiens) (UniProt P47898)', 'inhibition', 13.4);

Could you tell me which inhibition is on file for `COCCCNS(=O)(=O)c1cccc(S(=O)(=O)c2cccc(S(=O)(=O)NCCCOC)c2)c1` ?
-5.56
